# target: Muscarinic acetylcholine receptor M1 (Rattus norvegicus) (UniProt P08482)
# Sequence (P08482 whole entry, looked up): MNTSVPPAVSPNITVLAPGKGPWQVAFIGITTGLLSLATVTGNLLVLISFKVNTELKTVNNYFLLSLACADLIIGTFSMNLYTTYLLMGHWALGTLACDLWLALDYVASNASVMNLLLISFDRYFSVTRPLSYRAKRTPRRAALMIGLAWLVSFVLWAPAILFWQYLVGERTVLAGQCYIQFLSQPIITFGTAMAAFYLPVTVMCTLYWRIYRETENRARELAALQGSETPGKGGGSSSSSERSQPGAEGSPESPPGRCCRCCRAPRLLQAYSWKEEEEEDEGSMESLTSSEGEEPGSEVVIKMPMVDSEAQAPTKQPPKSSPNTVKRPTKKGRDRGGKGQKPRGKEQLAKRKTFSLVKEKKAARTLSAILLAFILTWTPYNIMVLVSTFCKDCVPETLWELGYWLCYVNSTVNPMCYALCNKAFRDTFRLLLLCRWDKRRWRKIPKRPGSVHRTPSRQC
# protocol-description: qHTS Assay for Antagonists of Acetylcholine Muscarinic M1 Receptor: Kinetic Measurement of Intracellular Calcium Response (AID 943); further: nearly all actives have a fitted effect of over 75% in size; further: potency means the concentration at half of the fitted maximal effect
# study-conditions: M1-expressing cells, kinetic intracellular calcium fluorescence; series mostly up to 35.3 µM
Inconclusive results are not listed. Activity calls are given as the source filed them. The call rests on the fitted dose curve; in most records, active means well fitted inhibition curve with a large enough effect; inconclusive means small, poorly fitted or top-dose-only effect; inactive means no such curve, though single readings can be large or run the other way.
quantity-name: Potency

- compound: "COc1cc(C=C(C#N)C#N)cc(O)c1O"
  target: "Muscarinic acetylcholine receptor M1 (Rattus norvegicus) (UniProt P08482)"
  measured: "inactive"
- compound: "CS(=N)(=O)CC[C@@H](N)C(=O)O (stereo not given in full)"
  target: "Muscarinic acetylcholine receptor M1 (Rattus norvegicus) (UniProt P08482)"
  measured: "inactive"
- compound: "NC[C@H](O)c1ccc(O)cc1"
  target: "Muscarinic acetylcholine receptor M1 (Rattus norvegicus) (UniProt P08482)"
  measured: "inactive"
- compound: "O=C(OC1CCN(CCCl)CC1)C(c1ccccc1)c1ccccc1"
  target: "Muscarinic acetylcholine receptor M1 (Rattus norvegicus) (UniProt P08482)"
  measured: "112 nM (active)"
- compound: "COc1ccc(OC)c([C@H](O)[C@H](C)N)c1"
  target: "Muscarinic acetylcholine receptor M1 (Rattus norvegicus) (UniProt P08482)"
  measured: "inactive"

These data points were gathered from PubChem BioAssay (NCATS).
